Experimental Target: T1, KGF (hKGF) (Homo sapiens, UniProt P21781 P21781:32-194)
T1 sequence: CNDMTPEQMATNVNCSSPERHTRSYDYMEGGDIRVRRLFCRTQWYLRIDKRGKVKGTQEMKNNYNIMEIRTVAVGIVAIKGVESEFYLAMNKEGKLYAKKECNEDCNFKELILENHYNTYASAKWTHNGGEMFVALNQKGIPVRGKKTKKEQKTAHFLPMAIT
Assay Info: competition; PC-3 cells; 2.7 nM on NIH3T3/FGFR-2; 92 pM Balb/MK
Condition Description: tags: Upstate Biotechnology; pseudoknot
Endpoint Name: pKi
Please treat pKi as minus the base-10 logarithm of the molar concentration.

Find the recorded pKi belonging to 14F (ssRNA, 2'-F pyrimidines) RNA: GGGAGGACGAUGCGGUGGUCUCCCAAUUCUAAACUUUCUCCAUCGUAUCUGGGCCAGACGACUCGCCCGA and report it.
9.70
